system under test: Serine/threonine-protein kinase PLK1 (Homo sapiens) (UniProt P53350)
Sequence (P53350 whole entry, looked up, the tested form may be a part): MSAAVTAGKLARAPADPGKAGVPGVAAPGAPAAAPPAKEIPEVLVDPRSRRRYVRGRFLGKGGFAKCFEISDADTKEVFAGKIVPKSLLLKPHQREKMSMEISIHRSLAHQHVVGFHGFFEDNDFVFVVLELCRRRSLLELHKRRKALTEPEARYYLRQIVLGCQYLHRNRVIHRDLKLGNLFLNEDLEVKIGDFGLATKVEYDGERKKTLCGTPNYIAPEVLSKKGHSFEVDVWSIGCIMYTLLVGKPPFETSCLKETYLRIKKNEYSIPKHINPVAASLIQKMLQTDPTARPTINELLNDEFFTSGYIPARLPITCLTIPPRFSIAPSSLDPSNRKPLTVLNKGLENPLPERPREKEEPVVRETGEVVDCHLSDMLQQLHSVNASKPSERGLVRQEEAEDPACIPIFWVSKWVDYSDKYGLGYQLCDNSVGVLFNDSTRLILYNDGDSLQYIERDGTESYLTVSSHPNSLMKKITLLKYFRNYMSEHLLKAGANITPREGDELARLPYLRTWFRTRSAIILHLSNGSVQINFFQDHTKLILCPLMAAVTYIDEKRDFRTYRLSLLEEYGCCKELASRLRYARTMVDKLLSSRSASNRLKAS
assay details: qHTS for Inhibitors of PLK1-PDB (polo-like kinase 1 - polo-box domain): Primary Screen; note: series mostly up to about 57 µM; % is set by controls: 0 for no effect and ±100 for the full control effect; nearly all actives have a fitted effect of over 65% in size
particulars: Plk1 PBD binding of FITC phosphopeptide, fluorescence polarization
The campaign covered roughly 360,000 compounds. About 10,000 (2.8%) were called active. Roughly 4% stayed inconclusive and do not appear here. The full list was thinned out, with actives kept by preference.
property measured: max response, negative = inhibition

Record excerpt, results attached:
molecule=CCCOc1ccc(F)cc1-c1cc(C(=O)NCc2ccc(F)cc2)[nH]n1 property_measured="max response, negative = inhibition" observed_result="-11.9% (inactive)"
molecule="COCCCN1C(=O)C(CC(=O)NCc2cccs2)CC(C(=O)N2CCOCC2)=C1C (stereo not given)" property_measured="max response, negative = inhibition" observed_result="-4.29% (inactive)"
molecule=O=C(CN1C(=O)/C(=C\c2ccccc2F)SC1=S)Nc1nc2ccccc2s1 property_measured="max response, negative = inhibition" observed_result="-28.6% (inactive)"
molecule=CC(=O)Nc1ccc(NC(=O)CSc2nnc(C3CC3)n2-c2ccccc2)cc1 property_measured="max response, negative = inhibition" observed_result="7.6% (inactive)"

What max response, negative = inhibition value was documented for this molecule, CN1OC[C@@H]2CN(C(=O)c3ccc(-c4ccccc4)cc3)[C@H](c3ccc(-c4cccc(F)c4)cc3)C[C@@H]21 ?
-8.48% (inactive)
